- TARGET: IDO1 (Homo sapiens)
- Sequence (P14902 whole entry): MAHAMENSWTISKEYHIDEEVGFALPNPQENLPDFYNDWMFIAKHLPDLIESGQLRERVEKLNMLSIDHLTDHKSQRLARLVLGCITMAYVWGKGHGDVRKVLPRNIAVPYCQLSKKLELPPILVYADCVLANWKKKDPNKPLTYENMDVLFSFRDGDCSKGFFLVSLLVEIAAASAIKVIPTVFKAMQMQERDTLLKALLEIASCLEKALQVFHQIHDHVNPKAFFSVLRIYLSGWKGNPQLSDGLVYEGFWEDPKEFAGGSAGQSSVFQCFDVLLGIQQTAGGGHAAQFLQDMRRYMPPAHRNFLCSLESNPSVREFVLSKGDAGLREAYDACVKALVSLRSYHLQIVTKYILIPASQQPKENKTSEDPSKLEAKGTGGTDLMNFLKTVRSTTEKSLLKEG
- RUN_DESCRIPTION: IDO1 Human Whole blood Assay
- Format: cell-based
- Set-up: Human whole blood was drawn in sodium heparin coated tubes from healthy internal donors; from tissue; host or cells: human whole blood from healthy donors, stimulated with LPS and IFNγ
- ASSAY_SETUP: LPS and IFNγ stimulated, 18 h, read-out: Human Whole Blood Potency, IC50
OUTCOME_MEASURE: IC50 (nM)
Answer format: numeric, nM implied, no suffix.

Here are 6 molecules together with their reported answers.
[
  {
    "MOLECULE": "Cc1cccc(N2CCN(C(=O)Cn3nc(C(=O)N4CC[C@@H](O)[C@H](F)C4)c4c3CCC4)CC2)c1C",
    "TARGET": "IDO1 (Homo sapiens)",
    "OUTCOME_MEASURE": "IC50",
    "UNITS_OF_MEASURE": "nM",
    "VALUE": 9550
  },
  {
    "MOLECULE": "Cc1cccc(N2CCN(C(=O)Cn3nc(C(=O)N4CCC(O)CC4)c4c3C[C@H](C(F)F)C4)CC2)c1C (single isomer, unassigned)",
    "TARGET": "IDO1 (Homo sapiens)",
    "OUTCOME_MEASURE": "IC50",
    "UNITS_OF_MEASURE": "nM",
    "VALUE": 126
  },
  {
    "MOLECULE": "Cc1cccc(N2CCN(C(=O)Cn3nc(C(=O)N4CCN(C(=O)CO)CC4)c4c3CCCC4)CC2)c1C",
    "TARGET": "IDO1 (Homo sapiens)",
    "OUTCOME_MEASURE": "IC50",
    "UNITS_OF_MEASURE": "nM",
    "VALUE": 90
  },
  {
    "MOLECULE": "Cc1cccc(N2CCN(C(=O)Cn3nc(C(=O)N4CCN(CC(F)(F)F)CC4)c4c3CCC4)CC2)c1C",
    "TARGET": "IDO1 (Homo sapiens)",
    "OUTCOME_MEASURE": "IC50",
    "UNITS_OF_MEASURE": "nM",
    "VALUE": 375
  },
  {
    "MOLECULE": "Cc1c(F)ccc(N2CCN(C(=O)Cn3nc(C(=O)N4CC[C@@H](O)[C@@H](F)C4)c4c3CCCC4)CC2)c1C",
    "TARGET": "IDO1 (Homo sapiens)",
    "OUTCOME_MEASURE": "IC50",
    "UNITS_OF_MEASURE": "nM",
    "VALUE": 103
  },
  {
    "MOLECULE": "Cc1c(F)ccc(N2CCN(C(=O)Cn3nc(C(=O)N4CCC(O)(CO)CC4)c4c3C[C@H]3C[C@@H]43)C3(CC3)C2)c1C",
    "TARGET": "IDO1 (Homo sapiens)",
    "OUTCOME_MEASURE": "IC50",
    "UNITS_OF_MEASURE": "nM",
    "VALUE": 1800
  }
]

QUERY: Name the value of IC50 reported for Cc1cccc(N2CCN(C(=O)Cn3nc(C(=O)N4CC[C@@H](O)[C@H](C)C4)c4c3C[C@H]3C[C@@H]43)CC2)c1C when tested on IDO1 (Homo sapiens).
RESULT: 403

QUERY: Name the value of IC50 reported for Cc1cccc(N2CCN(C(=O)Cn3nc(C(=O)N4CCC(NC(=O)CCO)CC4)c4c3CCCC4)CC2)c1C when tested on IDO1 (Homo sapiens).
RESULT: 137
